assay: qHTS Assay for Identifying Gametocytocidal Compounds (AID 743244);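 further: on the % scale 0 is the no-effect control and ±100 the full control effect; actives lower the fluorescent signal which means gametocytes are killed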; details: P. falciparum 3D7 stage III-V gametocytes, alamarBlue, 72 h; active compounds read low
Results filed as inconclusive are left out.
Below is a list of entries, each paired with its recorded max response value.
Reported metric: max response (%)

Nc1ccn(C2CO[C@H](CO)O2)c(=O)n1 (some centres undefined)
19.9
CN[C@H](CC(C)C)C(=O)N[C@H]1C(=O)N[C@@H](CC(N)=O)C(=O)N[C@@H]2C(=O)N[C@H]3C(=O)N[C@H](C(=O)N[C@H](C(=O)O)c4cc(O)cc(O)c4-c4cc3ccc4O)[C@H](O)c3ccc(c(Cl)c3)Oc3cc2cc(c3O[C@@H]2O[C@H](CO)[C@@H](O)[C@H](O)[C@@H]2O[C@H]2C[C@](C)(N)[C@H](O)[C@H](C)O2)Oc2ccc(cc2Cl)[C@H]1O
-6.25
C#CCC(Cc1cnc2nc(N)nc(N)c2n1)c1ccc(C(=O)N[C@@H](CCC(=O)O)C(=O)O)cc1 (some centres undefined)
4
COc1cc2c(cc1OC)[C@@H]1C(=O)c3ccc4c(c3O[C@@H]1CO2)C=CC(C)(C)O4
-5.53
